System: SETVI
testSummary: Pre-emergence herbicidal action against SETVI
Format: in vivo, Setaria viridis
testSettings: dosage 80 g/ha
metric: Pre-emergence action against SETVI in % (%)
Response body: numeric value in %, unit text excluded.

[
  {
    "compound": "CCn1nnnc1NC(=O)c1ccc(C(F)(F)F)c(C(=O)NC2CCC2)c1Cl [Example 2-146]",
    "metric": "Pre-emergence action against SETVI in %",
    "recordedNumber": 100
  },
  {
    "compound": "CCn1nnnc1NC(=O)c1ccc(C(F)F)c(C(=O)NCCOC)c1Cl [Example 2-156]",
    "metric": "Pre-emergence action against SETVI in %",
    "recordedNumber": 100
  },
  {
    "compound": "CCn1nnnc1NC(=O)c1ccc(C(F)F)c(C(=O)NC2CC2)c1SC [Example 2-89]",
    "metric": "Pre-emergence action against SETVI in %",
    "recordedNumber": 100
  },
  {
    "compound": "CCc1c(C(=O)Nc2nnnn2CC)ccc(C(F)(F)F)c1C(=O)NC(C)C1CC1 (centres unmarked) [Example 2-341]",
    "metric": "Pre-emergence action against SETVI in %",
    "recordedNumber": 90
  }
]

Moving on to another compound below.
Ask | Please supply the value of reported Pre-emergence action against SETVI in % for the item CCn1nnnc1NC(=O)c1ccc(Br)c(C(=O)NCC2CC2)c1Cl [Example 2-180]
Reply | 100

###

Tested on: VIOTR
testSummary: Pre-emergence herbicidal action against VIOTR
Type: in vivo, Viola tricolor
testSettings: dosage 80 g/ha
metric: Pre-emergence action against VIOTR in % (%)
Answer in %, number only, no unit symbol.

Ask | Write down Pre-emergence action against VIOTR in % measured for item CCn1nnnc1NC(=O)c1ccc(C(F)F)c(C(=O)NCC(F)F)c1SC
Reply | 100

###

Tested on: ALOMY
testSummary: Post-emergence herbicidal action against ALOMY
Format: in vivo, Alopecurus myosuroides
testSettings: Alopecurus myosuroides, 504 h, dosage 5 g/ha, visual assessment about 3 weeks after treatment vs untreated controls
pest or weed control at 5 g/ha values for the compounds below.
# value in %; strip the unit string

Worked set:
[
  {
    "structureAsSmiles": "CCCNC(=O)c1c(Br)ccc(C(=O)Nc2nnnn2C)c1Cl",
    "pest or weed control at 5 g/ha / %": 80
  },
  {
    "structureAsSmiles": "Cn1nnnc1NC(=O)c1ccc(Br)c(C(=O)NCC(F)(F)F)c1Cl",
    "pest or weed control at 5 g/ha / %": 80
  },
  {
    "structureAsSmiles": "CCCNC(=O)c1c(C(F)(F)F)ccc(C(=O)Nc2nnnn2C)c1C",
    "pest or weed control at 5 g/ha / %": 80
  },
  {
    "structureAsSmiles": "CCNC(=O)c1c(Br)ccc(C(=O)Nc2nnnn2C)c1Cl",
    "pest or weed control at 5 g/ha / %": 90
  },
  {
    "structureAsSmiles": "CCCNC(=O)c1c(C(F)(F)F)ccc(C(=O)Nc2nnnn2C)c1Cl",
    "pest or weed control at 5 g/ha / %": 80
  }
]

We now examine a further compound.
Ask | Return reported pest or weed control at 5 g/ha. Input compound: CCCNC(=O)c1c(C(F)F)ccc(C(=O)Nc2nnnn2CC)c1C
Reply | 80

###

pest or weed control at 80 g/ha: recorded values
System: PHBPU
testSummary: Pre-emergence herbicidal action against PHBPU
Type: in vivo, Pharbitis purpurea
testSettings: Ipomoea purpurea, 504 h, dosage 80 g/ha
# number only, unit % dropped from output

[
  {
    "structureAsSmiles": "CCc1c(C(=O)Nc2nnnn2C)ccc(C(F)F)c1C(=O)NC1CC1",
    "metric": "pest or weed control at 80 g/ha",
    "resultUnit": "%",
    "recordedNumber": 90
  },
  {
    "structureAsSmiles": "CCNC(=O)c1c(C(F)(F)F)ccc(C(=O)Nc2nnnn2C)c1SC",
    "metric": "pest or weed control at 80 g/ha",
    "resultUnit": "%",
    "recordedNumber": 80
  }
]

Ask | State its pest or weed control at 80 g/ha for this molecule: CCCNC(=O)c1c(C(F)(F)F)ccc(C(=O)Nc2nnnn2C)c1Cl
Reply | 80

Ask | Return the recorded pest or weed control at 80 g/ha value; entry: CCCNC(=O)c1c(Br)ccc(C(=O)Nc2nnnn2CC)c1Cl
Reply | 90

Ask | Given the molecule CSc1c(C(=O)Nc2nnnn2C)ccc(C(F)F)c1C(=O)NC1CC1 , write its reported pest or weed control at 80 g/ha.
Reply | 80

Ask | Please look at this molecule and report its pest or weed control at 80 g/ha: CCCNC(=O)c1c(C(F)(F)F)ccc(C(=O)Nc2nnnn2CC)c1C
Reply | 90

###

System: SETVI
testSummary: Pre-emergence herbicidal action against SETVI
Type: in vivo, Setaria viridis
testSettings: dosage 20 g/ha
metric: Pre-emergence action against SETVI in % (%)
Enter your answer as a number in %; do not include the unit.

[
  {
    "compound": "Cc1c(C(=O)Nc2nnnn2C)ccc(C(F)(F)F)c1C(=O)NCC(F)F [Example 1-30]",
    "Pre-emergence action against SETVI in % [%]": 90
  },
  {
    "compound": "Cn1nnnc1NC(=O)c1ccc(C(F)(F)F)c(C(=O)NCC2CC2)c1Cl [Example 1-132]",
    "Pre-emergence action against SETVI in % [%]": 80
  }
]

Ask | Fill in reported Pre-emergence action against SETVI in % for this entry: CCNC(=O)c1c(C(F)F)ccc(C(=O)Nc2nnc(C)o2)c1Br [Example 6-165]
Reply | 90

Ask | Identify Pre-emergence action against SETVI in % associated with the compound Cc1c(C(=O)Nc2nnnn2C)ccc(C(F)(F)F)c1C(=O)NCC1CCCO1 (stereo not drawn) [Example 1-37]
Reply | 90

Ask | Answer with the recorded Pre-emergence action against SETVI in % of Cc1nnc(NC(=O)c2ccc(C(F)F)c(C(=O)NCC3CC3)c2Br)o1 [Example 6-167] only.
Reply | 80

###

As shown below, each of these compounds has a reported Pre-emergence action against VERPE in % value.
Tested on: VERPE
testSummary: Pre-emergence herbicidal action against VERPE
Type: in vivo, Veronica persica
testSettings: dosage 20 g/ha

[
  {
    "compound": "CCn1nnnc1NC(=O)c1ccc(C(F)(F)F)c(C(=O)NCC2CC2)c1SC",
    "Pre-emergence action against VERPE in %": "80%"
  }
]

Ask | Specify measured Pre-emergence action against VERPE in % for CCn1nnnc1NC(=O)c1ccc(OC)c(C(=O)NC2CC2)c1Cl .
Reply | 80%

Ask | Return reported Pre-emergence action against VERPE in %. Input compound: CCn1nnnc1NC(=O)c1ccc(C(F)(F)F)c(C(=O)NCC2CCCO2)c1C (centres unmarked)
Reply | 80%

Ask | Read the entry CCc1c(C(=O)Nc2nnnn2C)ccc(C(F)(F)F)c1C(=O)NCC1CC1 and write its reported Pre-emergence action against VERPE in %.
Reply | 90%

Ask | Tell me measured Pre-emergence action against VERPE in % for CCc1c(C(=O)Nc2nnnn2C)ccc(C(F)(F)F)c1C(=O)NC(C)C1CC1 (centres unmarked) please.
Reply | 80%

Ask | Supply measured Pre-emergence action against VERPE in % of Cc1nnc(NC(=O)c2ccc(C(F)F)c(C(=O)NC(C)C3CC3)c2C)o1 (centres unmarked) in your reply.
Reply | 90%

Ask | Dear colleague, please send me the reported Pre-emergence action against VERPE in % for CCn1nnnc1NC(=O)c1ccc(C(F)(F)F)c(C(=O)NC)c1C1CC1 when you can.
Reply | 80%

Ask | Dear colleague, please send me the reported Pre-emergence action against VERPE in % for CCn1nnnc1NC(=O)c1ccc(C(F)F)c(C(=O)NCC#N)c1Cl when you can.
Reply | 80%

###

System: ECHCG
testSummary: Post-emergence herbicidal action against ECHCG
Type: in vivo, Echinochloa crus-galli
testSettings: Echinochloa crus-galli, 504 h, dosage 20 g/ha
Recorded pest or weed control at 20 g/ha, one value per entry.
// units = %; emit number, no label

# example entries with known answers
[
  {
    "structureAsSmiles": "Cc1c(C(=O)Nc2nnnn2C)ccc(C(F)(F)F)c1C(=O)NC1COC1",
    "pest or weed control at 20 g/ha, %": 90
  },
  {
    "structureAsSmiles": "CCn1nnnc1NC(=O)c1ccc(Cl)c(C(=O)NC2CC2)c1Cl",
    "pest or weed control at 20 g/ha, %": 90
  },
  {
    "structureAsSmiles": "CNC(=O)c1c(C(F)(F)F)ccc(C(=O)Nc2nnnn2C)c1OC",
    "pest or weed control at 20 g/ha, %": 90
  },
  {
    "structureAsSmiles": "CCCNC(=O)c1c(C(F)F)ccc(C(=O)Nc2nnnn2CC)c1C",
    "pest or weed control at 20 g/ha, %": 90
  }
]

Ask | Please give the documented pest or weed control at 20 g/ha of CCNC(=O)c1c(C(F)(F)F)ccc(C(=O)Nc2nnnn2CC)c1SC
Reply | 80

Ask | Supply measured pest or weed control at 20 g/ha of CCn1nnnc1NC(=O)c1ccc(C(F)(F)F)c(C(=O)NC)c1Cl in your reply.
Reply | 100

Ask | Answer with reported pest or weed control at 20 g/ha of Cn1nnnc1NC(=O)c1ccc(C(F)(F)F)c(C(=O)NC2CC2)c1Cl
Reply | 90

Ask | Kindly indicate its recorded pest or weed control at 20 g/ha. Item: CCCNC(=O)c1c(C(F)F)ccc(C(=O)Nc2nnnn2C)c1C
Reply | 90

Ask | In one line, give reported pest or weed control at 20 g/ha of the entry CCNC(=O)c1c(C(F)F)ccc(C(=O)Nc2nnnn2C)c1Br .
Reply | 100
